Attribution: the supplement of paper PMC11061612

system: A204 (Rhabdomyosarcoma); assay: combination Emax (second highest fraction inhibited in the dose matrix, 72 h); higher = more inhibition; extreme values may be limits of the assay
Metric name: combination Emax
Answer using only a numeral; do not append any unit.

Record Cc1c2c(nn1C)CSCc1cc(n(C)n1)CSc1cc(c3ccccc3c1)OCCCc1c(C(=O)O)n(C)c3c-2c(Cl)ccc13 [AZD5991] + Cc1cc2ncnn2cc1Nc1ncc2c(n1)n(C1CCOCC1)c(=O)n2C [AZD7648] (first compound max 1 µM, 7x7, partner max 10 µM) has A204 (Rhabdomyosarcoma) combination Emax equal to 0.659

Record C[C@@H](c1ccc2nccn2c1)n1nnc2ncc(-c3cnn(C)c3)nc21 [Savolitinib] + CC1(C)CCC(CN2CCN(c3ccc(C(=O)NS(=O)(=O)c4ccc(NCC5CCOCC5)c([N+](=O)[O-])c4)c(Oc4cnc5[nH]ccc5c4)c3)CC2)=C(c2ccc(Cl)cc2)C1 [Venetoclax] (first compound max 1 µM, 7x7, partner max 1 µM) has A204 (Rhabdomyosarcoma) combination Emax equal to 0.0862

Record Cc1c2c(nn1C)CSCc1cc(n(C)n1)CSc1cc(c3ccccc3c1)OCCCc1c(C(=O)O)n(C)c3c-2c(Cl)ccc13 [AZD5991] + Cn1cnc2c(F)c(Nc3ccc(Br)cc3Cl)c(C(=O)NOCCO)cc21 [Selumetinib] (first compound max 1 µM, 7x7, partner max 3 µM) has A204 (Rhabdomyosarcoma) combination Emax equal to 0.459
